Tested on: thr^34 -phosphorylated DARPP-32
method summary: phospho-DARPP-32 immunoblot in mouse neostriatal slices
Assay type: cell-based
property: effect on the basal level of phosphorylated DARPP-32

molecule | study system | recorded result
NC1=N[C@H](O)[C@H]2[C@H]3O[C@]4(O)O[C@@H]([C@@H](O)[C@@]2(N1)[C@@H]4O)[C@]3(O)CO [TTX, tetrodotoxin] | thr^34 -phosphorylated DARPP-32 | increased
C[C@]12N[C@H](Cc3ccccc31)c1ccccc12 [MK801] | thr^34 -phosphorylated DARPP-32 | increased
